- Test system: L. crispatus
- Protocol Text: MIC against commensal vaginal Lactobacillus strains
- Type: cell-based, Lactobacillus crispatus
- Assay Context: Table 6, L. crispatus (3 strains)
Form field: MIC Range (one value per entry).

Answered examples (2):
CC[C@H]1OC(=O)[C@H](C)[C@@H](O[C@H]2C[C@@](C)(OC)[C@@H](O)[C@H](C)O2)[C@H](C)[C@@H](O[C@@H]2O[C@H](C)C[C@H](N(C)C)[C@H]2O)[C@](C)(O)C[C@@H](C)CN(C)[C@H](C)[C@@H](O)[C@]1(C)O [Azithromycin] : ≤1 µg/mL
C[C@@H]1CN2c3c(cc4c(N5C(=O)OC[C@@H]5C)noc4c3F)CC3(C(=O)NC(=O)NC3=O)[C@H]2[C@H](C)O1 [Zoliflodacin] : ≤1 µg/mL

GET /value?item= CO/N=C(\C(=O)N[C@@H]1C(=O)N2C(C(=O)O)=C(CSc3nc(=O)c(=O)[nH]n3C)CS[C@H]12)c1csc(N)n1 [Ceftriaxone] &field=MIC Range returns ≤1 to 2 µg/mL
